assay-system: recombinant human aromatase (Homo sapiens)
Construct: purchased Bio Vision
Sequence (P11511 whole entry): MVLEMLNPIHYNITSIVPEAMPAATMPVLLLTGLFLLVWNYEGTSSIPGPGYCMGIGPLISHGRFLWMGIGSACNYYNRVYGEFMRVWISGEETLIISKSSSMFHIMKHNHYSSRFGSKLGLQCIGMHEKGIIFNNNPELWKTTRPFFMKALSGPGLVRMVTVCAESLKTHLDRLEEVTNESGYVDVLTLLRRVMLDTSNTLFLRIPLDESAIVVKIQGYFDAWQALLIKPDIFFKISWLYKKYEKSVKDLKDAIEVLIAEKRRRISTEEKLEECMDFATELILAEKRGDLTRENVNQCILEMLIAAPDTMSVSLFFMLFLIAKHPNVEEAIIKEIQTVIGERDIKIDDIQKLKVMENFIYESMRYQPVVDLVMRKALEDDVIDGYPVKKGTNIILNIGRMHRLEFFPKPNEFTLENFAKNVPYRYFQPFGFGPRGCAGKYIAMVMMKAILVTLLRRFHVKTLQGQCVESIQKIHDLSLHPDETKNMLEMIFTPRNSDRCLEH
test-protocol: Fluorometric aromatase (CYP19A) inhibitor screening kit (Bio Vision)
Type: biochemical
condition-notes: read-out: IC50 Aromatase Inhibition
measured-parameter: pIC50
Formally, pIC50 is defined as -log10 of the concentration c, with c in mol/L.

Can you look up pIC50 on recombinant human aromatase (Homo sapiens) for N#Cc1ccc(C2=Nn3c(nnc3-c3ccc(-c4nc5ccccc5[nH]4)cc3)SC2)cc1 [Compound 5e] ?
7.49

---

Test system: NIH3T3 cells
test-protocol: MTT cytotoxicity assay, healthy NIH3T3 cells
Type: cell-based
condition-notes: Mus musculus, NIH3T3, n = 4
Protocol: The newly synthesized compounds were evaluated for their in vitro anticancer potential against MCF-7 breast cancer cell lines by MTT assay using cisplatin as a reference standard. […] In addition, the cytotoxic activities of compounds 5c, 5e, 5k, and 5m were assessed against healthy NIH3T3 [25] cells, in order to express the selectivity toward carcinogenic cells. The IC50 values of test compounds were determined as the mean IC50 of 4 independent experiments. […]
measured-parameter: IC50

So what does the record say about IC50 for N#Cc1ccc(C2=Nn3c(nnc3-c3ccc(-c4nc5ccccc5[nH]4)cc3)SC2)cc1 [Compound 5e] ?
≥ 1000 µM

Reference source for all entries: paper PMC7180718
